Please go through the items and note down their kobs.
Target: Epac1 (Homo sapiens, UniProt O95398)
Construct: made in house
Sequence (O95398 192-923): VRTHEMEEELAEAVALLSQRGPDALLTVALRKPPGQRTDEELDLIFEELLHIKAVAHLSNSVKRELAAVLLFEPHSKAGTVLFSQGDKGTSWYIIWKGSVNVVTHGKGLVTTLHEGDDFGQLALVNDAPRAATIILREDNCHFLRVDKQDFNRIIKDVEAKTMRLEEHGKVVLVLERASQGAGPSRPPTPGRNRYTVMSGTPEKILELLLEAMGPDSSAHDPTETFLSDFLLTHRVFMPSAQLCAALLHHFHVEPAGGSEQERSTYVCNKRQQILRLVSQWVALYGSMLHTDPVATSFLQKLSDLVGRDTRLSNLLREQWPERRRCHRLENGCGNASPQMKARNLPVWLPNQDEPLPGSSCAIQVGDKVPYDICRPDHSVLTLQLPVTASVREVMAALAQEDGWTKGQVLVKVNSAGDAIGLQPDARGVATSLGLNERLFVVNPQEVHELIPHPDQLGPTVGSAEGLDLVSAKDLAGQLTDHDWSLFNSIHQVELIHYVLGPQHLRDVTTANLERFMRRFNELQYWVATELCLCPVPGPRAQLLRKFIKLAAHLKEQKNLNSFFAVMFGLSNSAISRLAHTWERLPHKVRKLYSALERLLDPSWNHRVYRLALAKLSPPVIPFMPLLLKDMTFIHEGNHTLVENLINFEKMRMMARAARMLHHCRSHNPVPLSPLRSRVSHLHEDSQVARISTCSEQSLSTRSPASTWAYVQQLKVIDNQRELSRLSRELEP
Test: Epac activation assay, Epac1
Format: biochemical
Conditions: 5 μM compound
Answers are plain numbers, in s⁻¹.

Example cases with answers are listed next.
Q) # input compound: Nc1ncnc2c1ncn2[C@@H]1O[C@@H]2COP(=O)(O)O[C@H]2[C@H]1O [cAMP, reference compound] ; wanted: its kobs
A) 0.000161

Q) # input compound: COC1C2OP(=O)(O)OCC2OC1n1c(Sc2ccc(Cl)cc2)nc2c(N)ncnc21 [D-007, 8-pCPT-2′-O-Me-cAMP, reference compound] ; wanted: its kobs
A) 0.00293

Q) I'd like to know its kobs. The compound in question is Cc1ccc(CSc2nc3c(N)ncnc3n2[C@@H]2O[C@@H]3CO[P@](O)(=S)O[C@H]3[C@H]2O)cc1 [S-230, Sp-8-pMeBnT-cAMPS]
A) 3.3e-05

Now for another entry.
Q) Return reported kobs; argument: Nc1ncnc2c1nc(SCc1ccccc1)n2[C@@H]1O[C@@H]2CO[P@](O)(=S)O[C@H]2[C@H]1O [S-220, Sp-8-BnT-cAMPS]
A) 0.000102

---

Provide the recorded kobs for the entries that follow.
Molecular target: Epac2^fl (Mus musculus)
Experiment: Epac activation assay, full length Epac2
Format: biochemical
Set-up: made in house
Settings: 2 μM compound
Numbers only, in s⁻¹.

Recorded results for 3 compounds are shown here.
Q) # input compound: Nc1ncnc2c1ncn2[C@@H]1O[C@@H]2COP(=O)(O)O[C@H]2[C@H]1O [cAMP, reference compound] ; wanted: its kobs
A) 3.47e-05

Q) Return reported kobs; argument: `Cc1ccc(CSc2nc3c(N)ncnc3n2[C@@H]2O[C@@H]3CO[P@](O)(=S)O[C@H]3[C@H]2O)cc1`
A) 8.9e-05

Q) If you can, please state the reported kobs value of `Nc1ncnc2c1nc(SCc1ccccc1)n2[C@@H]1O[C@@H]2CO[P@](O)(=S)O[C@H]2[C@H]1O` .
A) 0.000819

Further cases:
Q) Entry under review: COC1C2OP(=O)(O)OCC2OC1n1c(Sc2ccc(Cl)cc2)nc2c(N)ncnc21 [D-007, 8-pCPT-2′-O-Me-cAMP, reference compound] . Reported kobs?
A) 2.18e-05

---

Target: Epac2^fl (Mus musculus, UniProt Q9EQZ6)
Assay: Epac activation assay, full length Epac2
Assay type: biochemical
Parameters: made in house
Conditions: 50 μM compound
assay endpoint: kobs (s⁻¹)
Give bare numbers, in s⁻¹.

Would you please look over these solved cases?
Q) What value of measured kobs is listed for `Cc1ccc(CSc2nc3c(N)ncnc3n2[C@@H]2O[C@@H]3CO[P@](O)(=S)O[C@H]3[C@H]2O)cc1` ?
A) 0.000491

Q) Which kobs value belongs to COC1C2OP(=O)(O)OCC2OC1n1c(Sc2ccc(Cl)cc2)nc2c(N)ncnc21 [D-007, 8-pCPT-2′-O-Me-cAMP, reference compound] ?
A) 7.76e-05

Q) Quick one: kobs for `Nc1ncnc2c1nc(SCc1ccccc1)n2[C@@H]1O[C@@H]2CO[P@](O)(=S)O[C@H]2[C@H]1O` ?
A) 0.0015

Next:
Q) Quick one: kobs for Nc1ncnc2c1ncn2[C@@H]1O[C@@H]2COP(=O)(O)O[C@H]2[C@H]1O [cAMP, reference compound] ?
A) 0.000167

---

Please respond with reported kobs for every item in the list.
Molecular target: Epac2^fl (Mus musculus, UniProt Q9EQZ6)
Sequence (Q9EQZ6 1-993 isoform Q9EQZ6-3): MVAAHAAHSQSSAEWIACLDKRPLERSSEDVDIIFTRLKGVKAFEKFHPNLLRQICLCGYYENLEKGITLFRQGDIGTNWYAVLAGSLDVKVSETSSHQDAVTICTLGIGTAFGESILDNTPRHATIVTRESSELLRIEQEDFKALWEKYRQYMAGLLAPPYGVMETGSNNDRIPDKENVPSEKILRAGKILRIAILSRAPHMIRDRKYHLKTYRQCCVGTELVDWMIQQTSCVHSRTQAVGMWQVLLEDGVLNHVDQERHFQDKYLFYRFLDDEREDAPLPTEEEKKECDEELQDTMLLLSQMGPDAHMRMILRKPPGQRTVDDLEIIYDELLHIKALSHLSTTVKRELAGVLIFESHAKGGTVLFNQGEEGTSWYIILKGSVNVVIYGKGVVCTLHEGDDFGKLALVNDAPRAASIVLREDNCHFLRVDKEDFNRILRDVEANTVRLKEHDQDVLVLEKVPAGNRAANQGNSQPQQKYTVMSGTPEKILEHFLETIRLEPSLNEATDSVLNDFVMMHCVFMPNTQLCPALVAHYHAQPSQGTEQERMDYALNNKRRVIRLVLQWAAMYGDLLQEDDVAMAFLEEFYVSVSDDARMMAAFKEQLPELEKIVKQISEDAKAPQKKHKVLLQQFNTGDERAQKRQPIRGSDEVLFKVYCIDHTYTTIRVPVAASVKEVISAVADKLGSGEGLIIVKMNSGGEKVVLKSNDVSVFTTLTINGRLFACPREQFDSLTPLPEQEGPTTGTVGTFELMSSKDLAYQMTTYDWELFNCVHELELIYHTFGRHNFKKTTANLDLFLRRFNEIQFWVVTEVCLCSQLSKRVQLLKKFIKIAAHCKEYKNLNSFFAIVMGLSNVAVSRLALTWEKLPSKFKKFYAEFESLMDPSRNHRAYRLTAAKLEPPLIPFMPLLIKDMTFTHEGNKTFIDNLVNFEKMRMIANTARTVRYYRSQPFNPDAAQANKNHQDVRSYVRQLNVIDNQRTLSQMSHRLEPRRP
Assay: Epac activation assay, full length Epac2
Assay type: biochemical
Set-up: made in house
Conditions: 4 μM compound
Remember to follow the number with its unit.

Q) Data request, read-out kobs, for COC1C2OP(=O)(O)OCC2OC1n1c(Sc2ccc(Cl)cc2)nc2c(N)ncnc21 [D-007, 8-pCPT-2′-O-Me-cAMP, reference compound]
A) 2.69e-05 s⁻¹

Count: 2. Required value per item: kobs.
1. Nc1ncnc2c1ncn2[C@@H]1O[C@@H]2COP(=O)(O)O[C@H]2[C@H]1O [cAMP, reference compound]
2. Nc1ncnc2c1nc(SCc1ccccc1)n2[C@@H]1O[C@@H]2CO[P@](O)(=S)O[C@H]2[C@H]1O [S-220, Sp-8-BnT-cAMPS]

A)
["4.71e-05 s⁻¹", "0.00102 s⁻¹"]

Q) Given the entry Cc1ccc(CSc2nc3c(N)ncnc3n2[C@@H]2O[C@@H]3CO[P@](O)(=S)O[C@H]3[C@H]2O)cc1 [S-230, Sp-8-pMeBnT-cAMPS] , report its measured kobs.
A) 0.000139 s⁻¹

---

Exercise: state measured A (PKA activity) for each of the compounds provided.
Biological target: PKA-Iβ (Homo sapiens)
Construct: made in house
Sequence (P31321 whole entry): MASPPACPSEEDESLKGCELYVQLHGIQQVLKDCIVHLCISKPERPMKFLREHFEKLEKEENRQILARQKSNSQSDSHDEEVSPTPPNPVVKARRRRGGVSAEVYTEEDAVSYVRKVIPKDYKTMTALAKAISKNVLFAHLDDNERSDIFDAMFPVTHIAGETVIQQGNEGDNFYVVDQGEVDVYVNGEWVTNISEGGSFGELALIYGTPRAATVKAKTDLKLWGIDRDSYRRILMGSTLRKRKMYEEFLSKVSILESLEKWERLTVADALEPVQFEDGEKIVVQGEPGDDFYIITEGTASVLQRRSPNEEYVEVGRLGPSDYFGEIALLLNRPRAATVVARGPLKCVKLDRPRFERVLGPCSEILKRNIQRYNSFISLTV
Test: PKA activity assay, PKA-Iβ
Assay type: biochemical
Conditions: PKAIβ; concentration 1.00E-01 μM
One number for each entry, in U/mg.

The cases that follow already have their A (PKA activity) on record.
Q) Entry `Nc1ncnc2c1nc(SCc1ccccc1)n2[C@@H]1O[C@@H]2CO[P@](O)(=S)O[C@H]2[C@H]1O` has what A (PKA activity)?
A) 7.7375

Q) Consider the compound `Cc1ccc(CSc2nc3c(N)ncnc3n2[C@@H]2O[C@@H]3CO[P@](O)(=S)O[C@H]3[C@H]2O)cc1` and give its measured A (PKA activity).
A) 5.21

Q) What does the record list as A (PKA activity) for Nc1ncnc2c1ncn2[C@@H]1O[C@@H]2COP(=O)(O)O[C@H]2[C@H]1O [cAMP, reference compound] ?
A) 2.23E+01

// moving on: another record for A (PKA activity)
Q) Tell me the measured A (PKA activity) of COC1C2OP(=O)(O)OCC2OC1n1c(Sc2ccc(Cl)cc2)nc2c(N)ncnc21 [D-007, 8-pCPT-2′-O-Me-cAMP, reference compound] , please.
A) 5.43

---

Target: Epac2^fl (Mus musculus, UniProt Q9EQZ6)
Assay: Epac activation assay, full length Epac2
Assay type: biochemical
Design: made in house
Conditions: 8 μM compound
assay endpoint: kobs
Answer format: value, then unit.

Sample answers from the record:
Q) Bench note: what kobs did COC1C2OP(=O)(O)OCC2OC1n1c(Sc2ccc(Cl)cc2)nc2c(N)ncnc21 [D-007, 8-pCPT-2′-O-Me-cAMP, reference compound] show?
A) 3.74e-05 s⁻¹

Q) Given `Nc1ncnc2c1nc(SCc1ccccc1)n2[C@@H]1O[C@@H]2CO[P@](O)(=S)O[C@H]2[C@H]1O` , state its recorded kobs.
A) 0.00118 s⁻¹

Q) Look up kobs: Nc1ncnc2c1ncn2[C@@H]1O[C@@H]2COP(=O)(O)O[C@H]2[C@H]1O [cAMP, reference compound]
A) 6.35e-05 s⁻¹

Could you now consider this next compound?
Q) Requested field: kobs. Item: `Cc1ccc(CSc2nc3c(N)ncnc3n2[C@@H]2O[C@@H]3CO[P@](O)(=S)O[C@H]3[C@H]2O)cc1`
A) 0.000213 s⁻¹
